// provenance: the supplement of paper PMC10567573

B1: HDAC6 (parent)
chain: QEGLLDRCVSFQARFAEKEELMLV

Variants of: B1
METHOD: protein stability index of a GFP-peptide fusion (GPS, HEK-293T) (PSI 1-6); higher = more stable;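 also: lentivirally expressed fusions sorted by FACS into six bins by GFP to DsRed ratio, PSI derived from sequencing read proportions per bin multiplied by bin number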
SETUP_CONDITIONS: c terminus: a fixed tail appended
Rule: protein stability index of 2 or more gives satisfied; anything lower gives not satisfied.

[
  {
    "CHANGE": "L23T",
    "CAT": "satisfied"
  },
  {
    "CHANGE": "R14M",
    "CAT": "not satisfied"
  },
  {
    "CHANGE": "L23R",
    "CAT": "satisfied"
  },
  {
    "CHANGE": "E20L",
    "CAT": "not satisfied"
  },
  {
    "CHANGE": "A13I",
    "CAT": "not satisfied"
  },
  {
    "CHANGE": "Q1E",
    "CAT": "satisfied"
  },
  {
    "CHANGE": "A16L",
    "CAT": "not satisfied"
  },
  {
    "CHANGE": "K18C",
    "CAT": "satisfied"
  },
  {
    "CHANGE": "F11Q",
    "CAT": "satisfied"
  },
  {
    "CHANGE": "L21A",
    "CAT": "satisfied"
  }
]
